- System: S. aureus
- Format: cell-based
- Particulars: no RBC; Table 2
Bridge positions count the residues as written; N and C are the ends. Square brackets hold non-standard residues; d marks the D form. Peptide text beside a SMILES is read from it.
Measured MIC, S. aureus, No RBC accompanies every entry in the list below.

CC(C)C[C@@H](NC(=O)CNC(=O)[C@@H](CCCNC(=N)N)NC(=O)[C@@H](CCCNC(=N)N)NC(=O)[C@@H](C)NC(=O)[C@@H](Cc1c[nH]c2ccccc12)NC(=O)[C@@H](CCCNC(=N)N)NC(=O)[C@H](N)CCCNC(=N)N)C(=O)N[C@H](C)C(=O)N[C@H](Cc1ccccc1)C(=O)N[C@H](C)C(=O)N[C@H](Cc1ccccc1)C(=O)N[C@H](CCCNC(=N)N)C(=O)N[C@H](CCCNC(=N)N)C(N)=O [D-CONGA-G7, rrwarrglafafrr (All D)] (H-[dR][dR][dW][dA][dR][dR]G[dL][dA][dF][dA][dF][dR][dR]-NH2): 6.4 µM

Turning to the following compound.
Field MIC, S. aureus, No RBC (S. aureus), entry CC(C)C[C@@H]1NC(=O)[C@H](CCCNC(=N)N)NC(=O)[C@H](CCCNC(=N)N)NC(=O)[C@H](C)NC(=O)[C@H](Cc2c[nH]c3ccccc23)NC(=O)[C@H](CCCNC(=N)N)NC(=O)[C@H](CCCNC(=N)N)NC(=O)CC[C@@H](C(N)=O)NC(=O)[C@H](CCCNC(=N)N)NC(=O)[C@H](CCCNC(=N)N)NC(=O)[C@H](Cc2ccccc2)NC(=O)[C@H](C)NC(=O)[C@H](Cc2ccccc2)NC(=O)[C@H](C)NC1=O [CYCLIZED-L-CONGA-E] (RRWARRLAFAFRRE-NH2; lactam N-14) : 30 µM
